# assayed_target: T1, ΔCRD3-TNFR2 protein (with CRD3 deletion), on CHO-S cells (human, UniProt P20333 23-461)
# T1 construct: also called CHO-SΔCRD3-TNFR2; TNFR2 lacking CRD3
# T1 sequence: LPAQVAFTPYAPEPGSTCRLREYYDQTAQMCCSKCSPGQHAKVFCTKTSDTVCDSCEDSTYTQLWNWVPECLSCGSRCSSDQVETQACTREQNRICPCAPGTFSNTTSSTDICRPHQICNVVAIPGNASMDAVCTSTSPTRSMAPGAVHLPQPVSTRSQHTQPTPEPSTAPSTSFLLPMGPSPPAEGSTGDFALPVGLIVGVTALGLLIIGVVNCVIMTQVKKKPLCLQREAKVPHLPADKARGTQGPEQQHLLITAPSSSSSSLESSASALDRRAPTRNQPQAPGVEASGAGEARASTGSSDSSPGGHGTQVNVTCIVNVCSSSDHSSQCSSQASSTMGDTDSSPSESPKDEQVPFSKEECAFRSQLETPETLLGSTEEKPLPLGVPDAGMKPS
# measurement_protocol: FACS on CHO-S cells with ΔCRD3-TNFR2
metric_name: binding result

1) BC-1B6-IgG1-LALA (antibody, V domains shown) VH: QVQLVESGGGVVQPGRSLRLSCAASGFTFSNFGMHWVRQAPGKGLEWVAVIWYEGSDKYYADSVKGRFTISRDNSKNTLYLQMNSLRAEDTAVYYCARDSSWGFLLYGMDVWGQGTTVTVSS VL: DVVMTQSPLSLPVTLGQPASISCRSSRSLEYSDGNTYLNWFQQRPGQSPRRLIYKVSNRDSGVPDRFSGSGSGTAFTLKISGVEAEDVGVYYCMQGTHWPPTFGGGTKVEIK | no binding
2) BC-1C3-IgG1 (antibody, V domains shown, Human VH/VL joined to the human IgG1 subtype) VH: QVQLVESGGGVVHPGKSLRLSCAASGFTFNIYGMHWVRQAPGKGLEWVALISYDGNDKYFADSVKGRFTISRDNSKNTLYLQMNSLRAEDTAVYYCAKAVDTAVVTFFDYWGQGTLVTVSS VL: EIVMTQSPVTLSVSPGERATLSCRASQSVSSNLAWYQQKPGQAPRLLIYSASTRATGIPARFSGSGSGTEFTLTISSLQSEDLAVYYCQQYSNWPFTFGPGTKVDIK | no binding
3) BC-1F4-IgG1 (antibody, V domains shown, Human VH/VL joined to the human IgG1 subtype) VH: QVQLQQSGPGLVKPSQTLSLTCAISGDSVSSDSSAWNWIRQSPSRGLEWLGRTYYRSKWYNDYTVSVKSRITINPDTSKNQFSLQLNSVTPEDTAVYYCAREDGVGGTKDYFDYWGQGTLVTVSS VL: DIQMTQSPSSLSASVGDRVTITCQASQDISNYLNWYQQKPGKAPKLLIYDASNLETGVPSRFSGSGSGTDFTFTINSLQPEDFATYFCQQYDNLPITFGQGTRLEIK | no binding
4) BC-1A8-IgG1 (antibody, V domains shown, Fully human VH/VL joined to the human IgG1 subtype, kappa light chain (RenMab mice)) VH: QVQLQQSGPGLVKPSQTLSLTCAISGDSVSSNSAAWNWIRQSPSRGLEWLGRTYYRSKWYNDYALSVKSRITINPETSKNQFSLQLNSVTPEDTAVYYCAREDGVGGTKDYFDYWGQGTLVTVSS VL: DIQMTQSPSSLSASVGDRVTITCQASQDIDNYLNWYQQKPGKAPKLLIYDVSNLEIGVPSRFSGSGSGTDFTFTISSLQPEDIATYYCQQYDNLPLTFGQGTRLEIK | no binding
